All values here come from PubChem BioAssay (NCI).

- TEST: NCI Yeast Anticancer Drug Screen. Data for the bub3 strain (AID 167)
- TEST_SETTINGS: S. cerevisiae bub3 mutant strain, at 50.0 µM, active compounds read high
The panel holds about 79,000 compounds, 15% with a hit somewhere; the sample as a whole holds those more often.
READOUT: growth inhibition (%)
Numbers only; they are read as %.

Consider the following illustrative entries.
Cc1ccc(S(=O)(=O)N/N=C/c2cc([N+](=O)[O-])ccc2O)cc1 ... 9.5
O=C1C(c2ccccc2)=[N+]([O-])c2cc([N+](=O)[O-])ccc21 ... 14.8
CCCCCCCc1cc(=O)[nH]c(=S)[nH]1 ... 11.3
O=[N+]([O-])c1ccc(N2CCN=N2)cc1 ... -14.2

Task: Returns the measured growth inhibition for the input molecule. Input: CC1CCCN2C(=O)CN(Cc3ccccc3)CC(=O)N12 (configuration not stated)
Output: 3.1

Task: Can you handle NCCCCCC(=O)O next?
Output: -22

Task: Can you handle COP(=O)(CC(=O)C1OC(C)(C)OC1C(O)COCc1ccccc1)OC (configuration not stated) next?
Output: 14.6

Task: Can you handle O=CN(c1ccccc1)c1ccccc1 next?
Output: -4.55

Task: Can you handle CCCCC1(CC)COC2(CCCC2)OC1 next?
Output: -9.7

Task: Can you handle O=S(=O)(O)c1ccc(N/N=C/c2ccccc2)cc1 next?
Output: -10.2

Task: Can you handle COc1cccc(/C=N\c2nc(-c3ccccc3Cl)cs2)c1O next?
Output: 39.6

Task: Can you handle CCN(CC)[Si](C)(C)C next?
Output: -21.8

---

- TEST: NCI Yeast Anticancer Drug Screen. Data for the mlh1 rad18 strain (AID 175)
- TEST_SETTINGS: S. cerevisiae mlh1 rad18 strain growth inhibition; at 50.0 µM; active compounds read high
This is part of a sample that, as a whole, favours compounds with a hit. Of some 79,000 tested, about 15% had one in any assay.
READOUT: growth inhibition (%)
Numbers only; they are read as %.

NNc1nc2ccccc2c(=O)n1NC(=O)C(=O)Nc1cccc(C(F)(F)F)c1 ... 31.4
O=P(O)(O)OC1C(OP(=O)(O)O)C(OP(=O)(O)O)C(OP(=O)(O)O)C(OP(=O)(O)O)C1OP(=O)(O)O.[Cu+2] (configuration not stated) ... -19.4
COCCNC(=O)/C=C\C(=O)O ... -3.8
CCn1c(O)c(C=Nc2ccccc2)s/c1=N/Nc1nc(C)cs1 ... -27.5
Cc1ccc(S(=O)(=O)CCN2CCCC2)cc1 ... -9.55
N/N=C/c1ccc2ccccc2n1 ... -19.6
CCOC(=O)/C(=C\c1ccccc1Cl)C(C)=O ... 99.5
NC(=O)Cc1nc(O)cc(=O)[nH]1 ... -2.15

Task: Returns the measured growth inhibition for the input compound. Input: O=C(OCCOCBr)c1ccccc1
Output: -14.3

Task: Can you handle CC(=O)OC1COC(NC(=O)N(CCCl)N=O)C(OC(C)=O)C1OC(C)=O (configuration not stated) next?
Output: 48.8

Task: Can you handle COc1ccc(C(C)=O)c(O)c1OC next?
Output: 3

Task: Can you handle CC(C)OC(=O)c1cc(N)ccc1Cl next?
Output: 34

---

- TEST: NCI Yeast Anticancer Drug Screen. Data for the cln2 rad14 strain (AID 165);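 further: 0% = growth equal to vehicle treated cultures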
- TEST_SETTINGS: S. cerevisiae cln2 rad14 strain, at 50.0 µM, active compounds read high
About 79,000 compounds went through this panel and 15% of them were active in at least one assay; those are over-represented in the sample as a whole.
READOUT: growth inhibition (%)
Numbers only; they are read as %.

C[C@@]1(Cc2ccccc2)C(=O)N2[C@@H](CO)C(c3ccccc3)O[C@]2(C)c2ccccc21 (stereo partly specified) ... -6.05
O=NN(CC(=O)O)c1ccc2ccccc2c1 ... -39.5
CC(CN1CCCC1)(Oc1ccccc1)C(=O)c1ccccc1 (stereo unspecified) ... 7.8
CC(=O)Oc1ccc(C2(c3ccc(OC(C)=O)cc3)C(=O)Nc3ccccc32)cc1 ... -0.65
O=c1c2ncccc2cc2n1CCc1c-2[nH]c2ccccc12 ... -4.75
CCOC(=O)Cn1c(=O)n(C)c(=O)c2[nH]cnc21 ... 15.1
Cc1cc(=NO)cc(C)n1O ... -3.3
O=C1Nc2ccccc2/C1=N/N=P(c1ccccc1)(c1ccccc1)c1ccccc1 ... 2.4
Nc1ccc(S(=O)(=O)Nc2nccs2)cc1 ... 6.05
COC(=O)CC(=O)/C(=C/C(C/C=C(\C(=O)CC(=O)OC)C(=O)OC)OC)C(=O)OC (stereo unspecified) ... 18.8

Now look at this one.
Task: Returns the measured growth inhibition for the input molecule. Input: CC(C)(SC(=N)N)B(O)O
Output: 9.35

---

- TEST: NCI Yeast Anticancer Drug Screen. Data for the bub3 strain (AID 167)
- TEST_SETTINGS: S. cerevisiae bub3 mutant strain, at 50.0 µM
The panel holds about 79,000 compounds, 15% with a hit somewhere; the sample as a whole holds those more often. Activity calls are given as the source filed them. Cut-off read from the data, not from the text of the source: active = growth inhibition above about 70%; inactive = the rest.
# valid calls are TRUE (active), FALSE (inactive); nothing else

CCN(CC)CCOC(=O)c1c(C)cc(C)cc1C ... FALSE
O=C(N=C1C(=O)C2(CCCCC2)C2(N=C(c3ccccc3)OC2=O)C12CCCCC2)c1ccccc1 (stereo unspecified) ... FALSE
COC(=O)C(CCCCNC(=O)OCc1ccccc1)NC(=O)c1ccc(N(C)C=O)cc1 (stereo unspecified) ... FALSE
Cc1ccc2nc3c(C)cc(=O)cc-3sc2c1 ... TRUE

Task: Please state the recorded outcome for this compound: COCCOC(=O)C(O)c1ccccc1 (stereo unspecified)
Output: FALSE

Task: Can you handle Cc1cc(Cl)ccc1NC(=O)C1C(=O)N(c2ccc(Cl)cc2C)C(=O)/C1=N\NC(N)=S (stereo unspecified) next?
Output: FALSE

---

- TEST: NCI Yeast Anticancer Drug Screen. Data for the cln2 rad14 strain (AID 165);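 further: 0% = growth equal to vehicle treated cultures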
- TEST_SETTINGS: S. cerevisiae cln2 rad14 strain, at 50.0 µM
This is part of a sample that, as a whole, favours compounds with a hit. Of some 79,000 tested, about 15% had one in any assay. Active and inactive are the calls of the source. Cut-off read from the data, not from the text of the source: active = growth inhibition above about 70%; inactive = the rest.
# valid calls are label 1 for active, label 0 for inactive; nothing else

The examples below pair each entry with its known result.
O=C(Nc1cc(Cl)c(Cl)cc1Cl)Nc1cc(Cl)ccc1Oc1ccc(Cl)cc1S(=O)(=O)O ... label 1
COc1cc(C(O)C(CO)Oc2c(OC)cc(C3OCC4C(c5cc(OC)c(O)c(OC)c5)OCC34)cc2OC)ccc1O (stereo unspecified) ... label 0
CCOP(C)(=O)/C(Cc1ccc(OC)c(OC)c1)=N\O (stereo unspecified) ... label 0

Task: Please state the recorded outcome for this compound: CC1(C)CC(=O)C(/C=N/C(N)=S)=C(O)C1
Output: label 0

Task: Can you handle c1ccc2c(c1)C1CCCCCC21N1CCOCC1 (stereo unspecified) next?
Output: label 0

Task: Can you handle CC(=O)NC1=NN(C(C)=O)C(C)(c2ccccc2)S1=O (stereo unspecified) next?
Output: label 0

---

growth inhibition listing for selected compounds.
- TEST: NCI Yeast Anticancer Drug Screen. Data for the rad50 strain (AID 155);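 further: 0% = growth of vehicle-only cultures of the same strain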
- TEST_SETTINGS: S. cerevisiae rad50 strain growth inhibition; at 50.0 µM; active compounds read high
About 79,000 compounds went through this panel and 15% of them were active in at least one assay; those are over-represented in the sample as a whole.
Numbers only; they are read as %.

Consider the following illustrative entries.
Oc1cc2c(c3c(O)c4ccccc4c(O)c13)=NC1CCCCC1N=2 (centres undefined) ... 6.25
COc1cc2c(cc1OC)C(=O)C1(CO)COC(=O)C1C2 (centres undefined) ... -7.7
CCC(CC)COC(=O)CC(C)=O ... 18.2
O=[N+]([O-])c1cccc(-c2csc(NNC3=NC/C(=C/c4ccc5c(c4)OCO5)S3)n2)c1 ... 33.5
CC1CCC(OC(=O)Cc2ccccc2)CC1 (centres undefined) ... 26.7

Now look at this one.
Task: Returns the measured growth inhibition for the input compound. Input: CN=C1c2ccccc2C(=O)c2c1c(O)n(-c1ccccc1)c2O
Output: 27.9

---

- TEST: NCI Yeast Anticancer Drug Screen. Data for the rad50 strain (AID 155);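 further: 0% = growth of vehicle-only cultures of the same strain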
- TEST_SETTINGS: S. cerevisiae rad50 strain growth inhibition; at 50.0 µM; active compounds read high
Compounds without any hit were thinned out: in the full panel of roughly 79,000, 15% have a hit.
growth inhibition listing for selected compounds.
Numbers only; they are read as %.

Consider the following illustrative entries.
CCCCC(CC)C1OCC(O)CO1 (stereo not drawn) ... 8.8
O=C(Cl)CCc1ccnc2ccccc12 ... 0.5
Cc1ccc(NC(=S)N/C=C(\c2ccccc2)S(=O)Cc2ccccc2)c(C)c1 (stereo not drawn) ... 8
C=C1CC(C)(Cn2cnc3c(N)ncnc32)OC1=O (stereo not drawn) ... 9
Cc1c(C2CCC(=O)C2)c2ccccc2n1C (stereo not drawn) ... -3.05

Task: Returns the measured growth inhibition for the input compound. Input: COc1ccc(S(=O)(=O)c2ccc(F)cc2)cc1
Output: -22.1

Task: Can you handle CN(C)c1ccc(Cc2ccc(N(C)C)cc2[N+](=O)[O-])c([N+](=O)[O-])c1 next?
Output: -4.35

Task: Can you handle N#CCC(=O)N1CCc2ccccc2C1 next?
Output: -30.9

Task: Can you handle COc1cc(NCCCCCNC(C)C)c2nccc(C)c2c1 next?
Output: 42.2

Task: Can you handle Cc1c(C(CC(=O)c2ccccc2)C(=O)O)c2ccccc2n1C (stereo not drawn) next?
Output: 2.05

Task: Can you handle C[N+](C)(CCNCC(N)=O)CC(N)=O next?
Output: -17.6

Task: Can you handle C=CCC(O)CC=C next?
Output: -8

Task: Can you handle CC(=O)Nc1ccc(/C=N/NS(=O)(=O)c2ccc(C)cc2)cc1 next?
Output: 0.3
